Test: Inhibition of collagen-induced blood platelet aggregation in human
Type: functional

COMPOUND: Cc1cccc2c1CN1CC(=O)NC1=N2
EC50, nM: 700

* * *

Test system: Rattus norvegicus
Assay: Effect on systolic blood pressure in rat after an oral dose at 50 mg/kg
Format: functional, Artery
OUTCOME_MEASURE: Initial blood pressure

MOLECULE: CN(C(=O)CCCOc1ccc2[nH]c(=O)ccc2c1)C1CCCCC1 [CILOSTAMIDE]
VALUE_REPORTED: 125 mmHg

MOLECULE: CC1C(=O)NC2=Nc3sc4c(c3CN21)CCCC4.Cl (centres undefined)
VALUE_REPORTED: 128 mmHg

MOLECULE: Cl.O=C1CN2Cc3c(sc4c3CCCC4)N=C2N1
VALUE_REPORTED: 122 mmHg

MOLECULE: O=C1CN2Cc3c(ccc(Cl)c3Cl)N=C2N1 [ANAGRELIDE]
VALUE_REPORTED: 130 mmHg
